Procedure text: Solubility of compound A in various solvents (standard solubility determination)
Type: physicochemical
Settings: organic solvent or mixture; Methanol: dichloromethane (1:1); 25 °C
Quantity name: solubility (mg/mL)
Report the figure in mg/mL without appending any unit label.

Query: I am curious: what solubility value has been reported for CC(C)N1Cc2cc(C(F)(F)F)ncc2-c2cnc(NCc3c(F)ccc4c3CCO4)n3cnc(c23)C1=O [compound A] ?
Response: 28.5

----------
Procedure text: Solubility of compound A in various solvents (standard solubility determination)
Type: physicochemical
Settings: organic solvent or mixture; DMF; 25 °C
Quantity name: solubility (mg/mL)
Report the figure in mg/mL without appending any unit label.

Query: I am curious: what solubility value has been reported for CC(C)N1Cc2cc(C(F)(F)F)ncc2-c2cnc(NCc3c(F)ccc4c3CCO4)n3cnc(c23)C1=O [compound A] ?
Response: 33
